Measured C0, listed per entry for reference.
protocol_details: Pharmacokinetic study after IV injection in rats
Assay type: in vivo
protocol_conditions: male, Sprague-Dawley, plasma, rat, 10 mg/kg
value_type: C0 (ng/mL)

compound	scale_unit	numeric_result
COc1ccc(-c2coc3cc(OCC4CS4)ccc3c2=O)c(OC)c1 (centres unmarked)	ng/mL	4960
Cc1cc(=O)c2c(O)cc(OCC3CS3)cc2o1 (centres unmarked)	ng/mL	6960

---

protocol_details: Pharmacokinetic study after IV injection in rats
Assay type: in vivo
protocol_conditions: male, Sprague-Dawley, plasma, rat, 2 mg/kg

molecule	clearance, mL/min
Cc1cc(=O)c2c(O)cc(OCC3CS3)cc2o1 (centres unmarked) [J2]	46.5
COc1ccc(-c2coc3cc(OCC4CS4)ccc3c2=O)c(OC)c1 (centres unmarked) [NA49]	30.7

---

Measured AUC(0-t), listed per entry for reference.
protocol_details: Pharmacokinetic study after IV injection in rats
Format: in vivo
protocol_conditions: male, Sprague-Dawley, plasma, rat, 10 mg/kg

molecule	AUC(0-t) [ng·h/mL]
Cc1cc(=O)c2c(O)cc(OCC3CS3)cc2o1 (centres unmarked) [J2]	1480
COc1ccc(-c2coc3cc(OCC4CS4)ccc3c2=O)c(OC)c1 (centres unmarked) [NA49]	1240

---

protocol_details: Single-dose IV toxicity in ICR mice
Format: in vivo, mouse
protocol_conditions: male, mouse, in vivo, not achieved by the maximum dose
Description: Male Sprague–Dawley rats (7-week-old) and male Institute of Cancer Research (ICR) mice (5-week-old) were purchased from Orient Bio (Seongnam, Korea) and Samtako Bio (Osan, Korea), respectively. […] For single-dose toxicity study of each drug, ICR mice were divided into 6 groups of control (0.9% normal saline), vehicle, and four dosages of each inhibitor (n = 4 mice per group). […] In addition, body weight was measured on days 0, 3, 7, and 14 following IV administration.

compound	LD50 at 14 days
Cc1cc(=O)c2c(O)cc(OCC3CS3)cc2o1 (centres unmarked)	> 30 mg/kg
COc1ccc(-c2coc3cc(OCC4CS4)ccc3c2=O)c(OC)c1 (centres unmarked)	> 30 mg/kg

---

Measured inhibition at 10 μM, listed per entry for reference.
Tested on: hERG K+ channel
protocol_details: hERG K+ channel binding assay (fluorescence polarization, red fluorescent tracer)
protocol_conditions: human, probe red fluorescent hERG channel ligand tracer; concentration treated 10 μM
value_type: inhibition at 10 μM (%)

molecule	value_type	numeric_result
COc1ccc(-c2coc3cc(OCC4CS4)ccc3c2=O)c(OC)c1 (centres unmarked) [NA49]	inhibition at 10 μM	39
Cc1cc(=O)c2c(O)cc(OCC3CS3)cc2o1 (centres unmarked) [J2]	inhibition at 10 μM	8.7

---

Test system: PC9 cells
protocol_details: MTT viability assay, PC9
Assay type: cell-based
protocol_conditions: Homo sapiens, PC-9, 24 h

compound	IC50, µM
COc1ccc(-c2coc3cc(OCC4CS4)ccc3c2=O)c(OC)c1 (stereo not shown)	73

---

protocol_details: Pharmacokinetic study after IV injection in rats
Type: in vivo
protocol_conditions: male, Sprague-Dawley, plasma, rat, 2 mg/kg
value_type: Vd

molecule	result
COc1ccc(-c2coc3cc(OCC4CS4)ccc3c2=O)c(OC)c1 (centres unmarked)	3.35 L
Cc1cc(=O)c2c(O)cc(OCC3CS3)cc2o1 (centres unmarked)	0.77 L

---

protocol_details: Pharmacokinetic study after IV injection in rats
Type: in vivo
protocol_conditions: male, Sprague-Dawley, plasma, rat, 2 mg/kg
value_type: AUC(0-t) (ng·h/mL)

compound	numeric_result
Cc1cc(=O)c2c(O)cc(OCC3CS3)cc2o1 (centres unmarked)	180
COc1ccc(-c2coc3cc(OCC4CS4)ccc3c2=O)c(OC)c1 (centres unmarked)	210
